System: Staphylococcus aureus subsp. aureus MW2
Assay: Selectivity ratio for inhibition of human Methionyl-tRNA synthetase to that of Staphylococcus aureus Methionyl-tRNA synthetase.
# binarize Ratio: threshold 30 inclusive, high side yes, low side no

- CCn1nc(C(=O)O)cc1-c1ccc(-c2ccc(Cl)cc2Cl)cc1: yes
- O=C(O)c1cc(-c2ccc(-c3ccc(Cl)cc3Cl)cc2)nn1Cc1ccccn1: no
- Clc1ccc(-c2ccc(-c3cc(-c4nnn[nH]4)nn3-c3cccnc3)cc2)c(Cl)c1: yes
- O=C(O)c1cc(-c2ccc(-c3ccccc3)cc2)n(-c2ccc(Cl)cc2Cl)n1: no
- O=C(O)c1cc(-c2ccc(-c3ccc(C(F)(F)F)cc3)cc2)n(-c2ccc(Cl)cc2Cl)n1: no
- O=C(NCc1nn[nH]n1)c1cc(-c2ccc(-c3ccc(Cl)cc3Cl)cc2)n(-c2cccnc2)n1: yes
- O=C(O)c1cc(-c2ccc(-c3ccc(Cl)cc3Cl)cc2)n(Cc2ccncc2)n1: yes
- O=C(O)Cn1nc(C(=O)O)cc1-c1ccc(-c2ccc(Cl)cc2Cl)cc1: no
- O=C(O)c1cccc(-c2ccc(-c3cc(C(=O)O)nn3-c3ccc(Cl)cc3Cl)cc2)c1: no
- NC(=O)c1cc(-c2ccc(-c3ccc(Cl)cc3Cl)cc2)n(-c2ccccn2)n1: yes
- O=C(O)c1cc(-c2ccc(-c3ccc(Cl)cc3Cl)cc2)n(-c2cccnc2)n1: yes
- O=C(O)c1cc(-c2ccc(-c3ccc(Cl)cc3Cl)cc2)n(Cc2cccnc2)n1: yes
- O=C(O)c1cc(-c2ccc(-c3ccc(F)cc3)cc2)n(-c2ccc(Cl)cc2Cl)n1: no
- O=C(O)c1cc(-c2ccc(-c3ccc(F)c(Cl)c3)cc2)n(-c2ccc(Cl)cc2Cl)n1: no
- O=C(O)c1cc(-c2ccc(-c3ccc(Cl)cc3Cl)cc2)n(-c2ccccn2)n1: yes
- O=C(O)c1cc(-c2ccc(-c3ccc(Cl)cc3Cl)cc2)n(-c2ccc(Cl)cc2Cl)n1: no

====

Molecular target: Methionine--tRNA ligase, cytoplasmic (Homo sapiens)
Sequence (P56192 whole entry): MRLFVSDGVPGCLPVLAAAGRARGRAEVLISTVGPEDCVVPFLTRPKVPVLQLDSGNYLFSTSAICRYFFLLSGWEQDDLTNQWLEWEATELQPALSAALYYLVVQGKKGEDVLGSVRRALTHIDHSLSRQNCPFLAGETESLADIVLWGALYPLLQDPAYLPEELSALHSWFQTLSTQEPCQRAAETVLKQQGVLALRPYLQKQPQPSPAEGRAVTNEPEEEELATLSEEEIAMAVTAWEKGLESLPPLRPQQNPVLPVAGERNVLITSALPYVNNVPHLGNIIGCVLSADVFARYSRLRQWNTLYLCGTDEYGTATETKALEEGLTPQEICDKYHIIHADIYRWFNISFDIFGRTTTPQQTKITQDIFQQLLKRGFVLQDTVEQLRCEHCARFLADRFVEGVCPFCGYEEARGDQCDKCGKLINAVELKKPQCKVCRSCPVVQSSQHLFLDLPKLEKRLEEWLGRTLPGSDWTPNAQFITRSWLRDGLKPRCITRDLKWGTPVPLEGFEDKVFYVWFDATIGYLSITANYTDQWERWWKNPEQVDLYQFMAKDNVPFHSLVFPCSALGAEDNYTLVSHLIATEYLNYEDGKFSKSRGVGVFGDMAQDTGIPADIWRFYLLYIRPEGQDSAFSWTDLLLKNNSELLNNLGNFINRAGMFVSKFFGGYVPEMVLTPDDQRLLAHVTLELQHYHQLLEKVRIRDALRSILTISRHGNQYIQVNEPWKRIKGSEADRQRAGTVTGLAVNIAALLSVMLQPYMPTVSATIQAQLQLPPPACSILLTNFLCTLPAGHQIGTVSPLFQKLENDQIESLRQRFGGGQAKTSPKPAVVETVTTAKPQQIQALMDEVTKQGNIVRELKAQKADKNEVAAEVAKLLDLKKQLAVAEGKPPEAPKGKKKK
Measure name: IC50

- O=C(O)c1cc(-c2ccc(-c3ccc(Cl)cc3Cl)cc2)n(Cc2cccnc2)n1: > 100 µM
- O=C(O)c1cc(-c2ccc(-c3ccc(Cl)cc3Cl)cc2)n(-c2ccccn2)n1: > 100 µM
- NC(=O)c1cc(-c2ccc(-c3ccc(Cl)cc3Cl)cc2)n(-c2ccccn2)n1: > 100 µM
